Tested on: PKB Ser473 phosphorylation in Rat1-myr-HA-p110 alpha cells
Assay: Reverse protein array assay, PKB Ser473 phosphorylation in Rat1-myr-p110 alpha cells
Format: cell-based
Conditions: 0.5 h, pAkt Ser473, 30 minutes compound incubation, read-out: p-PKB IC50
pIC50: −log10 of the molar value.
Recorded pIC50 values for a group of compounds are listed next.
Measure: pIC50

>>> print(df.to_string())
                                    compound  measurement_qualifier  numeric_result
 0  CNc1ncc(-c2ccc3ncc4c(c3c2)n(-c2cn(C)nc2C)c(=O)n4C)cc1Cl [Example 146.1]                      >            8.30
 1  COc1ccc(-c2ccc3ncc4[nH]c(=O)n(-c5cc(C)nn5C)c4c3n2)cc1OC [Example 252]                      =            7.92
 2  CCOc1cc(-c2ccc3ncc4c(c3c2)n(-c2cn(C(C)C)nc2C)c(=O)n4C)cnc1COC [Example 197.2]                      =            7.11
 3  Cc1ncc(-c2ccc3ncc4c(c3c2)n(-c2cn(C)nc2C)c(=O)n4C)cc1N(C)C [Example 164]                      >            8.30
 4  COCc1cncc(-c2ccc3ncc4c(c3c2)n(-c2cn(C)nc2C)c(=O)n4C)c1 [Example 54.1]                      =            7.02
 5  CCN(C)c1cncc(-c2ccc3ncc4c(c3c2)n(-c2cn(C)nc2C)c(=O)n4C)c1 [Example 176]                      >            8.30
 6  COCCOc1cncc(-c2ccc3ncc4c(c3c2)n(-c2cn(C)nc2Cl)c(=O)n4C)c1 [Example 59.2]                      =            7.92
 7  COCCOc1cc(-c2ccc3ncc4c(c3c2)n(-c2cn(C)nc2C)c(=O)n4C)cnc1C [Example 86.2]                      =            7.48
 8  CCOc1cc(-c2ccc3ncc4c(c3c2)n(-c2cn(C)nc2C)c(=O)n4C)cnc1COC [Example 197.1]                      =            7.64
 9  Cc1nn(C)cc1-n1c(=O)n(C)c2cnc3ccc(-c4ccc5c(c4)CC(=O)N5)cc3c21 [Example 49]                      =            7.29
10  COCc1ncc(-c2ccc3ncc4c(c3c2)n(-c2cn(C)nc2C)c(=O)n4C)cc1OC [Example 195.1]                      =            7.20
11  CCNc1ncc(-c2ccc3ncc4c(c3c2)n(-c2cn(C)nc2C)c(=O)n4C)cc1COCC [Example 167]                      =            7.46
12  CCOc1cccc(-c2ccc3ncc4c(c3c2)n(-c2cn(C)nc2C)c(=O)n4C)c1 [Example 57]                      =            7.29
13  CCOc1ccc(-c2ccc3ncc4c(c3c2)n(-c2cn(CC)nc2C)c(=O)n4C)cc1OC [Example 29.1]                      =            8.30
14  CCOc1cc(-c2ccc3ncc4c(c3c2)n(-c2c(C)nn(CC(=O)N(C)C)c2C)c(=O)n4C)cnc1C [Example 85.3]                      =            6.53
15  CNC(=O)c1cc(-c2ccc3ncc4c(c3c2)n(-c2cn(C(C)C)nc2C)c(=O)n4C)cnc1N [Example 224.2]                      =            6.98

----------
Target: PI3K delta (Homo sapiens, UniProt O00329)
Construct: for the full-length p110-d subunit are generated and fused by overlapping PCR; p85(iSH2) fusion partner (see partner chain) (N); His tag (C); Tn5 (Trichoplusia ni) or TiniPro insect cells
Sequence (O00329 with tags, fused parts or gaps limits assumed): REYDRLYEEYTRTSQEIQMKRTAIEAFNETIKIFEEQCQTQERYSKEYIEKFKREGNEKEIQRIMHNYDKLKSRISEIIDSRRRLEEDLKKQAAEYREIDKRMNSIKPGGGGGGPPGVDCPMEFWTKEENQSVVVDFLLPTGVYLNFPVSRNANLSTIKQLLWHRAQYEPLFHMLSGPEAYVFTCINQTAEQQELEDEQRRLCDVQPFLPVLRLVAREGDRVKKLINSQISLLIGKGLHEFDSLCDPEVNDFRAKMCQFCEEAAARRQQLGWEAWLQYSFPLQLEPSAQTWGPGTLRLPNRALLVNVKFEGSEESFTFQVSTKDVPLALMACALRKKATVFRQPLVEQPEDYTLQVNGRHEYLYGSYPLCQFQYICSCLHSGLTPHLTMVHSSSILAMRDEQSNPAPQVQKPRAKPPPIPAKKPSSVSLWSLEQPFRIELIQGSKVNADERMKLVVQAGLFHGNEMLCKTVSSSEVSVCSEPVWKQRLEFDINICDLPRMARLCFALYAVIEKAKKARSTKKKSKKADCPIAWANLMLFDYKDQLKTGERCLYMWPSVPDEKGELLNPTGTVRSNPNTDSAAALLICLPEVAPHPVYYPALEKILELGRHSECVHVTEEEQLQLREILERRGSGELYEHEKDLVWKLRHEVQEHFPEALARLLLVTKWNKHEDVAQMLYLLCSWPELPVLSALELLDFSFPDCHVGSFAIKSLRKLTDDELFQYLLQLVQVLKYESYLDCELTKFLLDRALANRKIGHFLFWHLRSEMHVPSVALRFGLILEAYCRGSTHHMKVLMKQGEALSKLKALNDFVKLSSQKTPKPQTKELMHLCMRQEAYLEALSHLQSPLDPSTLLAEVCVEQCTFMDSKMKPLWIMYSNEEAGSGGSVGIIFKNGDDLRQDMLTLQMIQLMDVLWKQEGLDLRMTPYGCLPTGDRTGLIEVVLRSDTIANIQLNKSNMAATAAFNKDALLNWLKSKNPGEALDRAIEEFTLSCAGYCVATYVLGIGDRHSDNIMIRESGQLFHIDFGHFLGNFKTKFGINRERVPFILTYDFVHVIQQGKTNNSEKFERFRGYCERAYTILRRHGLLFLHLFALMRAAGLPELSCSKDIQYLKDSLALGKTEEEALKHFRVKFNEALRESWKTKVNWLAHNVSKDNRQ
Experiment: PI3K delta kinase assay (Kinase-Glo luminescence)
Recorded IC50 values for a group of compounds are listed next.
Measure: IC50 (nM)

>>> df
                                   compound  units  numeric_result
0  CNc1ncc(-c2ccc3ncc4c(c3c2)n(-c2cn(C)nc2C)c(=O)n4C)cc1C(F)(F)F     nM               9
1  Cc1nn(C(C)C)cc1-n1c(=O)n(C)c2cnc3ccc(-c4cnc(Cl)c(N)c4)cc3c21     nM               8
2  COCc1cncc(-c2ccc3ncc4c(c3c2)n(-c2cn(C)nc2Cl)c(=O)n4C)c1     nM              20
3  COc1ccc(-c2ccc3ncc4c(c3c2)n(-c2c(C)cnn2C)c(=O)n4C)cn1     nM             432

----------
Tested on: PKB Ser473 phosphorylation in Rat1-myr-HA-p110 alpha cells
Test: Reverse protein array assay, PKB Ser473 phosphorylation in Rat1-myr-p110 alpha cells
Assay type: cell-based
Settings: 0.5 h, pAkt Ser473, 30 minutes compound incubation, read-out: p-PKB IC50
Measure: IC50 (nM)

In [3]: df
Out[3]:
                                    compound  units  measurement_qualifier  numeric_result
 0  CNc1cc(-c2ccc3ncc4c(c3c2)n(-c2c(C)nn(C)c2C)c(=O)n4C)cnc1CO     nM                      =             114
 1  Cc1nn(C)cc1-n1c(=O)n(C)c2cnc3ccc(-c4cncc(NC(C)C)c4)cc3c21     nM                      =               9
 2  Cc1noc(C)c1-n1c(=O)n(C)c2cnc3ccc(-c4cnc(N)c(Cl)c4)cc3c21     nM                      =             151
 3  COCc1ncc(-c2ccc3ncc4c(c3c2)n(-c2cn(C(C)C)nc2C)c(=O)n4C)cc1OC     nM                      =              48
 4  Cc1nn(C)cc1-n1c(=O)n(C)c2cnc3ccc(-c4cnc(CO)c(OC(CF)CF)c4)cc3c21     nM                      =              12
 5  Cc1nn(C)cc1-n1c(=O)n(C)c2cnc3ccc(-c4ccc(N5CC[C@H](O)C5)nc4)cc3c21     nM                      =             115
 6  CNc1ncc(-c2ccc3ncc4c(c3c2)n(-c2c(C)nn(C)c2C)c(=O)n4C)cc1F     nM                      =             150
 7  Cc1nn(CC(=O)N(C)C)c(C)c1-n1c(=O)n(C)c2cnc3ccc(-c4cncc(OC5CCC5)c4)cc3c21     nM                      =             829
 8  Cc1nn(C)cc1-n1c(=O)n(C)c2cnc3ccc(-c4cncc(S(C)(=O)=O)c4)cc3c21     nM                      =             168
 9  COc1ccc(-c2ccc3ncc4c(c3n2)n(-c2cc(C)nn2C)c(=O)n4C)cc1OC     nM                      =              18
10  CCNc1cc(-c2ccc3ncc4c(c3c2)n(-c2c(C)noc2C)c(=O)n4C)cnc1F     nM                      =             253
11  COc1ccc(-c2ccc3ncc4c(c3c2)n(-c2ccnn2C)c(=O)n4C)cc1OC     nM                      =              46
12  Cc1nn(C)cc1-n1c(=O)n(C)c2cnc3ccc(-c4cnc5ccccc5c4)cc3c21     nM                      =               7
13  Cc1nn(C)cc1-n1c(=O)n(C)c2cnc3ccc(-c4ccc(C(N)=O)nc4)cc3c21     nM                      =              26
14  Cc1nn(C)c(C)c1-n1c(=O)n(C)c2cnc3ccc(-c4cnc(N)nc4)cc3c21     nM                      =             220
15  Cc1nn(C)cc1-n1c(=O)n(C)c2cnc3ccc(-c4cnc(Cl)c(N)c4)cc3c21     nM                      <               5
16  CCOc1ncc(-c2ccc3ncc4c(c3c2)n(-c2cn(C)nc2C)c(=O)n4C)cc1N(C)C(C)=O     nM                      =             265
17  CNc1ncc(-c2ccc3ncc4c(c3c2)n(-c2cn(C)nc2C)c(=O)n4C)cc1F     nM                      <               5
18  CCn1cc(-n2c(=O)n(C)c3cnc4ccc(-c5cnc(N)c(COC)c5)cc4c32)c(C)n1     nM                      =              12
19  Cc1nn(C)cc1-n1c(=O)n(C)c2cnc3ccc(-c4ccc(N5CC[C@@H](O)C5)nc4)cc3c21     nM                      =             135
20  CCOc1ccc(-c2ccc3ncc4c(c3c2)n(-c2cn(CCOC)nc2C)c(=O)n4C)cn1     nM                      =              41
21  COc1cc(-c2ccc3ncc4c(c3c2)n(-c2c(C)nn(C)c2C)c(=O)n4C)ccc1O     nM                      =              29
22  COC(=O)c1ccc(-c2ccc3ncc4c(c3c2)n(-c2cn(C)nc2C)c(=O)n4C)cn1     nM                      =              12
23  COc1ccc(-c2ccc3ncc4c(c3c2)n(-c2cc(C)nn2C)c(=O)n4C)cn1     nM                      =              12
24  CCC(O)(CC)c1cncc(-c2ccc3ncc4c(c3c2)n(-c2cn(C)nc2C)c(=O)n4C)c1     nM                      =              10
25  Cc1nn(C)cc1-n1c(=O)n(C)c2cnc3ccc(-c4cnc(CO)c(Cl)c4)cc3c21     nM                      =              32
26  CC(C)Oc1cncc(-c2ccc3ncc4c(c3c2)n(-c2cn(C)nc2Cl)c(=O)n4C)c1     nM                      =               9
27  Cc1nn(C)cc1-n1c(=O)n(C)c2cnc3ccc(-c4cncc(OCCF)c4)cc3c21     nM                      =              51
28  CCn1nccc1-n1c(=O)n(C)c2cnc3ccc(-c4ccc(OC)c(OC)c4)cc3c21     nM                      =              33
29  Cc1nn(C)cc1-n1c(=O)n(C)c2cnc3ccc(-c4ccc(OCC5CC5)nc4)cc3c21     nM                      =              36
30  Cc1nn(C)cc1-n1c(=O)n(C)c2cnc3ccc(-c4ccc(N5CCCC5)nc4)cc3c21     nM                      =               7
